src = patent US20230365592A1

- system.tested: human PAH with the R408W mutation (Homo sapiens, UniProt P00439, R408W)
- Construct: expressed in transfected cells
- Sequence (P00439 whole entry R408W): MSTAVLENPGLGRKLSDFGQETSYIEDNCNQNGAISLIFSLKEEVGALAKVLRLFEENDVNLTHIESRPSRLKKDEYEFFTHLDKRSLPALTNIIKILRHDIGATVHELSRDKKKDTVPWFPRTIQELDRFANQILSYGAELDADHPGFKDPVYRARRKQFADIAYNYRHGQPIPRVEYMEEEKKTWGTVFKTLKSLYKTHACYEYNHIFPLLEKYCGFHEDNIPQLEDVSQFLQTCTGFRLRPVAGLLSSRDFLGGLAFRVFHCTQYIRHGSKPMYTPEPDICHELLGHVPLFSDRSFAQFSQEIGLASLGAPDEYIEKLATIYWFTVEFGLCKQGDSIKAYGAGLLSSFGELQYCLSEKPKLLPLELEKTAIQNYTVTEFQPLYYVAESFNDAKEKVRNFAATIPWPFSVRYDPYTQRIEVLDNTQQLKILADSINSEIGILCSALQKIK
- procedure.summary: Cell Based Phenylalanine Flux Assay;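 also: after compound treatment, cells received sepiapterin plus isotope-labelled Phenylalanine for 4 hours, then labelled Tyrosine in the medium was quantified, 10-point 2-fold dilution series run in duplicate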
- measurement.context: A375 cells expressing human R408W PAH; 24 hrs compound incubation; 13C-Tyrosine by LC-MS; average where tested multiple times; read-out: AC50
Property: AC50; scope: individual compounds

Guide cases for AC50, answers given:
[
  {
    "smi": "Cc1cccc2cc([C@@H]3c4nc[nH]c4CCN3C(=O)c3nnc(-c4ccn(C(F)F)n4)o3)nn12",
    "AC50": "< 500 nM"
  },
  {
    "smi": "Cc1cccc(-c2nnc(C(=O)N3CCc4[nH]cnc4[C@H]3c3cc4cccc(C(F)(F)F)n4n3)o2)n1",
    "AC50": "< 500 nM"
  },
  {
    "smi": "Cn1ccc(-c2nnc(C(=O)N3CCc4[nH]cnc4[C@@H]3c3cc4ccc(F)cn4n3)o2)n1",
    "AC50": "> 5000 nM"
  },
  {
    "smi": "Cc1cccc2cc([C@@H]3c4nc[nH]c4CCN3C(=O)c3cnn4cc(N(C)C)ccc34)nn12",
    "AC50": "500 to 1000 nM"
  },
  {
    "smi": "O=C(c1nnc(-c2cnn(S(=O)(=O)C3CC3)c2)o1)N1CCc2[nH]cnc2[C@@H]1c1cc2c(F)cccn2n1",
    "AC50": "> 5000 nM"
  },
  {
    "smi": "O=C(c1nnc(-c2ccn(C(F)F)n2)o1)N1CCc2[nH]cnc2[C@H]1c1cc2c(OC(F)F)cccn2n1",
    "AC50": "500 to 1000 nM"
  },
  {
    "smi": "Cc1ccc(-c2nnc(C(=O)N3CCc4[nH]cnc4[C@H]3c3cc4ccccn4n3)o2)nc1",
    "AC50": "500 to 1000 nM"
  },
  {
    "smi": "O=C(c1nnc(-c2ccccn2)o1)N1CCc2[nH]cnc2[C@H]1c1cc2cccc(C(F)(F)F)n2n1",
    "AC50": "< 500 nM"
  },
  {
    "smi": "O=C(c1nnc(-c2cccnc2)o1)N1CCc2[nH]cnc2[C@H]1c1cc2c(Cl)cccn2n1",
    "AC50": "< 500 nM"
  },
  {
    "smi": "O=C(c1nnc(-c2ccccn2)o1)N1CCc2[nH]cnc2[C@@H]1c1cc2ccc(F)cn2n1",
    "AC50": "> 5000 nM"
  }
]

For human PAH with the R408W mutation (Homo sapiens, UniProt P00439, R408W), provide AC50 of O=C(c1cnn2cc(N3CCOCC3)ccc12)N1CCc2[nH]cnc2[C@H]1c1cc2c(C(F)(F)F)cccn2n1 please.
500 to 1000 nM
